# targetOrSystem: UniProt Q2YDK3
# Sequence (Q2YDK3 36-553): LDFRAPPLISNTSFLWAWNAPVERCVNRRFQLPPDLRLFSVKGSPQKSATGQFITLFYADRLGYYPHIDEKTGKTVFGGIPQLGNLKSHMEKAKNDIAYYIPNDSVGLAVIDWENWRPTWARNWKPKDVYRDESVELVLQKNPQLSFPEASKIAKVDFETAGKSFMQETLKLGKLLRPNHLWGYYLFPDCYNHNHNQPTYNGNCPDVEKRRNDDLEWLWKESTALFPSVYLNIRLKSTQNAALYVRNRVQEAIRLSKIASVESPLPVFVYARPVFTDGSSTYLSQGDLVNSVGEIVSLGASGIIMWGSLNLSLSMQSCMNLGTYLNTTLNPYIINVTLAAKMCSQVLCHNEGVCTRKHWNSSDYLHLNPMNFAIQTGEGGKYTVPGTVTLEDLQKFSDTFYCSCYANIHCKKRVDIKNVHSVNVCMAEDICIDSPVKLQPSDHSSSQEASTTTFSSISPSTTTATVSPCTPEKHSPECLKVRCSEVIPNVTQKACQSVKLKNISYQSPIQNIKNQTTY
# testMethodNotes: Hyaluronidase inhibition assay
# Format: biochemical
# testParameters: nonlinear regression of inhibition rates at five concentrations (1-40 µg/mL)
testReadout: IC50 on HAase enzyme activity (µg/mL)

CC1(C)CCC2(C(=O)O)CCC3(C)C(=CCC4C5(C)Cc6c([nH]c7c(Cl)cccc67)C(C)(C)C5CCC43C)C2C1 (stereo not shown) [Compound 6g]	9.57
CC1(C)CCC2(C(=O)O)CCC3(C)C(=CCC4C5(C)Cc6c([nH]c7c(Br)cccc67)C(C)(C)C5CCC43C)C2C1 (stereo not shown) [Compound 6f]	10.14
CC1(C)CCC2(C(=O)O)CCC3(C)C(=CCC4C5(C)Cc6c([nH]c7c(F)cccc67)C(C)(C)C5CCC43C)C2C1 (stereo not shown) [Compound 6b]	12.58
Cc1cc(C)c2[nH]c3c(c2c1)CC1(C)C(CCC2(C)C1CC=C1C4CC(C)(C)CCC4(C(=O)O)CCC12C)C3(C)C (stereo not shown) [Compound 6d]	11.62
CC1(C)CCC2(C(=O)O)CCC3(C)C(=CCC4C5(C)Cc6c([nH]c7c([N+](=O)[O-])cccc67)C(C)(C)C5CCC43C)C2C1 (stereo not shown) [Compound 6a]	16.23
CC1(C)CCC2(C(=O)O)CCC3(C)C(=CCC4C5(C)Cc6c([nH]c7c(F)cc(F)cc67)C(C)(C)C5CCC43C)C2C1 (stereo not shown) [Compound 6c]	9.97
CC1(C)CCC2(C(=O)O)CCC3(C)C(=CCC4C5(C)Cc6c([nH]c7ccc(Br)cc67)C(C)(C)C5CCC43C)C2C1 (stereo not shown) [Compound 6e]	11.60
